Biological target: T1, monomeric human CSF1R ectodomain protein (human, UniProt P07333 20-517)
T1 construct: also called biotinylated monomeric human CSF1R
Experiment: SPR Biacore, IgG captured, monomeric CSF1R analyte
Listed binders paired with reported pKd
Note on pKd: it is the negative log10 of concentration, concentration in mol/L.

MH4 (antibody, V domains shown, Designer clone, human IgG4(S228P)/Ckappa IgG) VH: QVQLVQSGAEVKKPGSSVKVSCKASGYTFSSYYMIWVRQAPGQGLEWMGDINPYNGGANYAQKFQGRVTITADESTSTAYMELSSLRSEDTAVYYCAREGPYFSNLYVMDYWGQGTLVTVSS VL: EIVLTQSPATLSLSPGERATLSCRASQSVSYQGENYLAWYQQKPGQAPRLLIYDASNRATGIPARFSGSGSGTDFTLTISSLEPEDFAVYYCQLSNQDLLTFGGGTKVEIK | 8.72

Moving on to another binder below.
Would you mind telling me what pKd value was observed for 26B07 (antibody, human IgG4, V domains shown, Library-derived clone, tested as human IgG4(S228P)/Ckappa IgG; framework residue limits counted on the grafts) VH: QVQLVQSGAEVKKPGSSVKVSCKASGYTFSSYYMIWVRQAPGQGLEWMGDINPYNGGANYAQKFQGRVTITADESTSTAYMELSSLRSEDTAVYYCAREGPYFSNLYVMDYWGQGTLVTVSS VL: EIVLTQSPATLSLSPGERATLSCRASQSVEYQGDNYLNWYQQKPGQAPRLLIYAASNRATGIPARFSGSGSGTDFTLTISSLEPEDFAVYYCQLSNEDLLTFGGGTKVEIK ? 9.54
